IC50 for assorted binders
system-tested: recombinant SARS-CoV-2 RBD with C-terminal AviTag (SARS-CoV-2, UniProt P0DTC2 319-541)
assay-text: ELISA, competition with coated ACE2-Fc for RBD [Cont. 8]
Numeric only. Scale: nM

PP1097 MBP-5HVZ-PAPA-RN-5-H6 (VHH) VHH: QVQLVESGGGLVQPGGSLRLSCAASGSSFRILAMHWYRQAPGKNREWVAVITSNGNTYYADSVKGRFTISRDNAKNTVYLQMNSLKPEDTAVYYCNADTLDLDDGATYNYWGQGTQVTVSS :: 2.3
PP935 MBP-5HVZ-S3b-E11-H6 (VHH, Form: Dimer) VHH: QVQLVESGGGLVQPGGSLRLSCAASGDIYSQSAMAWYRQAPGKEREFVAAITTTGSRSYKDSVKGRFTISRDNAKNTVYLQMNSLKPEDTAVYYCAAFAVRSSSVSDAYDYWGQGTQVTVSS :: 12.2
PP933 MBP-5HVZ-R5e-C1-H6 (VHH, Form: Dimer) VHH: QVQLVESGGGLVQPGGSLRLSCAASGSIPYVQAMSWFRQAPGKGREGVASIGWGGGTYYADSVKGRFTISRDNAKNTVYLQMNSLKPEDTAVYYCAAKFRENFSFYDYWGQGTQVTVSS :: 1.9

Qu. Could you tell me which IC50 is on file for PP931 MBP-5HVZ-R5a-F5-H6 (VHH, Form: Dimer) VHH: QVQLVESGGGLVQPGGSLRLSCAASGYHASILAMHWVRQAPGKEREWVASMTWSDMTQYSDSVKGRFTISRDNAKNTVYLQMNSLKPEDTAVYYCAATYVTRDRPWTHWGQGTQVTVSS ?
Ans. 5.6

Where do these numbers come from? They come from patent US20240150440A1.
